Answer each item with its documented pKd.
# tested-system: WDR5 protein (Homo sapiens (Human))
# method-description: Surface Plasmon Resonance (SPR) assay
# Format: binding
# conditions-used: SPR, Table 2; read-out: WDR5 binding affinity SPR (KD)
Give bare numbers, as −log10 of the molar value.

- test-smiles: "CN1CCN(c2ncc(-c3cc(CN4CCOCC4)ccc3F)cc2NC(=O)c2c[nH]c(=O)cc2C(F)(F)F)CC1"
  pKd: 7.66

Would you be so kind as to report pKd for each listed record?
1. CN1CCN(c2ncc(-c3cc(CNC4CCCCC4)ccc3F)cc2NC(=O)c2c[nH]c(=O)cc2C(F)(F)F)CC1
2. C[C@H]1CN(C)CCN1c1ccc(-c2cc(CN3CCOCC3)ccc2F)cc1NC(=O)c1c[nH]c(=O)cc1C(F)(F)F

Result:
1. 7.83
2. 5.40

meta.source: patent US11174250B2
